Examples of compounds with documented growth inhibition follow.
assay name: NCI Yeast Anticancer Drug Screen. Data for the rad52 strain (AID 147);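 further: 0% = growth of vehicle-treated control cultures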
condition description: S. cerevisiae rad52 mutant growth inhibition; at 100.0 µM; hits give high values
About 79,000 compounds went through this panel and 15% of them were active in at least one assay; those are over-represented in the sample as a whole.
Numbers only here, please. The scale is %.

Consider the reported growth inhibition for these compounds:
>  <compound>
O=C(O)c1cccc(-c2c3ccc(=O)cc-3oc3cc(O)ccc23)c1

>  <growth inhibition (%)>
85

$$$$
>  <compound>
Cc1ccc2[nH]c3c(C)c4cc[n+](C)cc4c(C)c3c2c1

>  <growth inhibition (%)>
97

$$$$
>  <compound>
CSC(=S)Nc1cccc(C)n1

>  <growth inhibition (%)>
63

$$$$
>  <compound>
NC(=NCc1ccccc1)N/N=C\c1ccnc2ccccc12

>  <growth inhibition (%)>
32

$$$$
>  <compound>
CC(C)(CN1CCCCC1)C(=O)CC(SCCS(=O)(=O)O)c1ccc(Br)cc1 (configuration not stated)

>  <growth inhibition (%)>
54

$$$$
>  <compound>
COc1ccccc1C(=O)OCC1CCCN2CCCCC12 (configuration not stated)

>  <growth inhibition (%)>
97

$$$$
>  <compound>
CCCCc1cc(O)ccc1O

>  <growth inhibition (%)>
29

$$$$
>  <compound>
CCOC(=O)c1cnc2c(C(F)(F)F)cccc2c1N=[N+]=[N-]

>  <growth inhibition (%)>
95

$$$$

IN: Reported growth inhibition for `CCCCCCCCCCNC(=O)OCC` : what is it?
OUT: 98

IN: Reported growth inhibition for `CN(C)CCOc1ccc2c(c1)C/C(=C/c1ncc([N+](=O)[O-])n1C)C2=O` : what is it?
OUT: 90

IN: Reported growth inhibition for `S=C(N/N=C/c1ccccn1)Nc1ccc(Cl)cc1` : what is it?
OUT: 59

IN: Reported growth inhibition for `COC(=O)CCNc1c2ccccc2nc2cccc([N+](=O)[O-])c12` : what is it?
OUT: 98

IN: Reported growth inhibition for `CN(Cc1cnc2nc(N)nc(N)c2n1)c1ccc(C(=O)N[C@@H](CCC(=O)O)C(=O)O)cc1` : what is it?
OUT: 85

IN: Reported growth inhibition for `CC(C)C1=CC2=C[C@H](O)[C@H]3C(C)(C)CCC[C@]3(C)C2=C(O)C1=O` : what is it?
OUT: 94

IN: Reported growth inhibition for `O=C(NC(Nc1ccc(F)c(Cl)c1)(C(F)(F)F)C(F)(F)F)C(C(F)(F)F)C(F)(F)F` : what is it?
OUT: 97
